# assayed system: ICE (Homo sapiens)
# Sequence (P29466 120-297): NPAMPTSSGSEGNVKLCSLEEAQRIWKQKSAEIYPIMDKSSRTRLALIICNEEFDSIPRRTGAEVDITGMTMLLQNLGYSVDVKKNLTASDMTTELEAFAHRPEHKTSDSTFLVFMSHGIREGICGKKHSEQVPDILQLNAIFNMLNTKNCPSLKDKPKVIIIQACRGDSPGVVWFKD
# Sequence (P29466 317-404): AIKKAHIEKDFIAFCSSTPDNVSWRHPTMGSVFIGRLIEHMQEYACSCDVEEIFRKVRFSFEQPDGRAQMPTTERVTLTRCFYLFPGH
# experiment: Protease inhibitor sensitivity of ICE: inhibitor added to THP.1 S-300, gel-based pre-IL-1β cleavage assay
property name: Inhibition

These recorded examples may help you get a feel for the data.
Cc1ccc(S(=O)(=O)N[C@@H](CCCCN)C(=O)CCl)cc1 : +
O=C(O)CI : +
NC(=O)CI [Iodoacetamide] : +
CCN1C(=O)C=CC1=O [N-ethyl maleimide] : +
Cc1ccc(S(=O)(=O)N[C@@H](Cc2ccccc2)C(=O)CCl)cc1 : +

Let us examine a further case.
**Query** Give recorded Inhibition with ICE (Homo sapiens) for the following compound: `CC(=O)N[C@@H](CC(C)C)C(=O)N[C@@H](CC(C)C)C(=O)N[C@H](C=O)CCCNC(=N)N`
**Result** -
